Test system: DLD1
protocol: cell viability (CellTiter-Glo) relative to plate median (fraction of plate median); higher = more viable cells
reported-conditions: 5 µM; treatment time 24 h; reporter: 7TFP
attribute-measured: cell viability
I'd appreciate a reply containing only the number, no unit.

Form field cell viability, entry CC1(C)C(=O)[C@@H]2O[C@@H]2[C@@]2(C)C1C[C@@H](O)[C@]1(C)C2CC[C@@]2(C)[C@H](c3ccoc3)OC(=O)C3OC321 (stereo partly drawn) [1,2alpha-EPOXYDEACETOXYDIHYDROGEDUNIN] : 1.01

---

Tested on: DLD1
protocol: cell viability (CellTiter-Glo) relative to plate median (fraction of plate median); higher = more viable cells
reported-conditions: 5 µM; treatment time 24 h; reporter: 7TFP
Binary call on cell viability with cut-off 1: strictly below means TRUE, and equality or higher means FALSE.

Previously resolved entries follow.
>>> classification("CN1C[C@H](C(=O)N[C@]2(C)O[C@@]3(O)[C@@H]4CCCN4C(=O)[C@H](Cc4ccccc4)N3C2=O)C[C@@H]2c3cccc4[nH]cc(c34)C[C@H]21")
"TRUE"
>>> classification("c1ccc2c(c1)[nH]c1cnccc12")
"TRUE"
>>> classification("C[C@]12CCC(=O)C=C1CCc1ccc(O)cc12")
"FALSE"
>>> classification("O=C1C(Cl)=C(Cl)C(=O)C(Cl)=C1Cl")
"TRUE"
>>> classification("Oc1ccc(Cl)cc1Cc1cc(Cl)ccc1O")
"TRUE"
>>> classification("CN1C[C@H](C(=O)N[C@]2(C)O[C@@]3(O)[C@@H]4CCCN4C(=O)[C@H](Cc4ccccc4)N3C2=O)C=C2c3cccc4[nH]cc(c34)C[C@H]21")
"TRUE"
>>> classification("CC(=O)O[C@@H]1[C@H]2CC[C@H]3[C@@](C)(O)[C@@H]4C[C@H](O)C(C)(C)[C@@]4(O)[C@H](O)C[C@@]13C[C@@]2(C)O")
"FALSE"
>>> classification("N.N.[Cl][Pt][Cl]")
"FALSE"

// query Criterion: cell viability strictly below 1. Is it met by C=C(C)c1cc2cc(C(C)=O)c(O)cc2o1 ?
// result FALSE

// query Criterion: cell viability strictly below 1. Is it met by N=C(NCCC[C@H](N)C(=O)O)N[N+](=O)[O-] ?
// result TRUE

---

System: SW480
protocol: TCF/Wnt firefly luciferase reporter signal relative to plate median (fraction of plate median); higher = higher Wnt reporter signal
reported-conditions: 5 µM; treatment time 24 h; reporter: 7TFP
Where TCF/Wnt firefly luciferase reporter signal equals or exceeds 1, the correct label is satisfied; where it does not, the label is not satisfied.

Previously resolved entries follow.
>>> classification("C/C=C/c1ccc2c(c1)OCO2")
"satisfied"
>>> classification("CC[C@H]1[C@@H]2C[C@H]3[C@@H]4N(C)c5ccccc5[C@]45C[C@@H]([C@@H]2[C@H]5O)N3[C@@H]1O")
"satisfied"
>>> classification("CC(=O)O[C@@H]1CC[C@@]2(C)[C@@H](CC[C@@H]3[C@@H]2CC[C@]2(C)C(=O)CC[C@@H]32)C1")
"satisfied"
>>> classification("CC(=O)O[C@@H]1CC2C(C)(C)[C@H](O)C=C[C@]2(C)C2CC[C@]3(C)C(=CC(=O)O[C@H]3c3ccoc3)[C@@]21C (stereo partly drawn) [3-alpha-HYDROXYDEOXYGEDININ]")
"not satisfied"
>>> classification("C[C@H](N)[C@H](O)c1ccc(O)c(O)c1")
"not satisfied"
>>> classification("CC(=O)OC1CCC23C(=O)OC45CCC(C6=CC(=O)OC6)C4(C)CCC2C5CCC3(O)C1 (stereo not given)")
"not satisfied"
>>> classification("CC(=O)O[C@H]1C[C@H](O[C@H]2[C@@H](O)C[C@H](O[C@H]3[C@@H](O)C[C@H](O[C@H]4CC[C@@]5(C)[C@H](CC[C@@H]6[C@@H]5C[C@@H](O)[C@]5(C)[C@@H](C7=CC(=O)OC7)CC[C@]65O)C4)O[C@@H]3C)O[C@@H]2C)O[C@H](C)[C@H]1O[C@@H]1O[C@H](CO)[C@@H](O)[C@H](O)[C@H]1O")
"not satisfied"
>>> classification("c1cncc([C@@H]2CCCCN2)c1")
"not satisfied"

Now consider a different compound.
// query Given the entry COc1cc2c(cc1OC)[C@@H]1C(=O)c3ccc4c(c3O[C@@H]1CO2)CC(C(C)C)O4 (stereo not given in full) , answer whether its TCF/Wnt firefly luciferase reporter signal meets or surpasses 1.
// result not satisfied

---

System: SW480
protocol: TCF/Wnt firefly luciferase reporter signal relative to plate median (fraction of plate median); higher = higher Wnt reporter signal
reported-conditions: 5 µM; treatment time 24 h; reporter: 7TFP
In this section we review reported TCF/Wnt firefly luciferase reporter signal values for a set of molecules.
I'd appreciate a reply containing only the number, no unit.

Examples with answers:
>>> observed_measurement("CC1NC(=O)C(NC(=O)c2cnc3ccccc3n2)COC(=O)C(C(C)C)N(C)C(=O)C2CSSCC(C(=O)N(C)C(C(C)C)C(=O)OCC(NC(=O)c3cnc4ccccc4n3)C(=O)NC(C)C(=O)N2C)N(C)C1=O (centres undefined) [Triostin A]")
0.871
>>> observed_measurement("COc1ccc(CCN2CCC(Nc3nc4ccccc4n3Cc3ccc(F)cc3)CC2)cc1")
1.03
>>> observed_measurement("CCC(C)C(=O)OC1CC2(C)C(c3ccoc3)OC(=O)CC23OC2(C)OC34C(OC(=O)C(C)C)C3(O)C(OC(=O)C5(C)OC5C)C5(C)CC3(O)C(C)(C5CC(=O)OC)C14O2 (centres undefined)")
1.13
>>> observed_measurement("O=C(O)CC[N+](=O)[O-] [BOVINOCIDIN (3-nitropropionic acid)]")
1.05
>>> observed_measurement("CC[C@@]1(O)C[C@H](O[C@H]2C[C@H](N(C)C)[C@H](O)[C@H](C)O2)c2c(cc3c(c2O)C(=O)c2c(O)ccc(O)c2C3=O)[C@H]1C(=O)OC")
0.711
>>> observed_measurement("CCC(C)C(=O)c1c(O)c(C)c2oc3c(C)c(O)c(C(=O)C(C)CC)c(O)c3c2c1O (centres undefined)")
0.958
>>> observed_measurement("COc1cc2occc2c2oc(=O)ccc12")
0.818
>>> observed_measurement("CC(C)c1cc2c(c(O)c1O)[C@@]1(C(=O)O)CCCC(C)(C)[C@@H]1CC2")
0.944
>>> observed_measurement("COc1ccc(/C=C/c2cc(O)cc(O)c2)cc1")
1.21
>>> observed_measurement("Cc1cc(O)ccc1Cl")
0.834

Form field TCF/Wnt firefly luciferase reporter signal, entry CNC(C)[C@H](O)c1ccccc1 (some centres undefined) : 1

Form field TCF/Wnt firefly luciferase reporter signal, entry NC(=O)c1cc([N+](=O)[O-])cc([N+](=O)[O-])c1 : 0.923

Form field TCF/Wnt firefly luciferase reporter signal, entry COc1ccc(C(=O)N2CCCC2=O)cc1 : 1.07

Form field TCF/Wnt firefly luciferase reporter signal, entry CCCC(C)C1(CC)C(=O)NC(=S)NC1=O (centres undefined) : 0.974

Form field TCF/Wnt firefly luciferase reporter signal, entry O=[N+]([O-])c1cc(O)c(O)c([N+](=O)[O-])c1 : 0.852

---

Tested on: DLD1
protocol: TCF/Wnt firefly luciferase reporter signal relative to plate median (fraction of plate median); higher = higher Wnt reporter signal
reported-conditions: 5 µM; treatment time 24 h; reporter: 7TFP
Where TCF/Wnt firefly luciferase reporter signal equals or exceeds 1, the correct label is satisfied; where it does not, the label is not satisfied.

Previously resolved entries follow.
>>> classification("CC(C)(C#N)O[C@@H]1O[C@H](CO)[C@@H](O)[C@H](O)[C@H]1O")
"not satisfied"
>>> classification("CC1(C)C2C[C@@H](O)[C@]3(C)C(CC[C@@]4(C)[C@H](c5ccoc5)OC(=O)[C@H]5O[C@]543)[C@@]2(C)[C@@H](O)C[C@H]1O (stereo partly drawn)")
"satisfied"
>>> classification("COC(=O)[C@]1(C)CC[C@]2(C)CC[C@]3(C)C4=CC=C5C(=CC(=O)C(O)=C5C)[C@]4(C)CC[C@@]3(C)[C@@H]2C1")
"satisfied"

Now consider a different compound.
// query Given the entry O=c1c(O)c(-c2ccc(O)c(O)c2)oc2c(O)c(O)cc(O)c12 , answer whether its TCF/Wnt firefly luciferase reporter signal meets or surpasses 1.
// result not satisfied

---

Test system: SW480
protocol: cell viability (CellTiter-Glo) relative to plate median (fraction of plate median); higher = more viable cells
reported-conditions: 5 µM; treatment time 24 h; reporter: 7TFP
attribute-measured: cell viability
I'd appreciate a reply containing only the number, no unit.

Examples with answers:
>>> observed_measurement("CC(C)CC(N(C)C)C1(c2ccc(Cl)cc2)CCC1 (stereo not drawn)")
1.02
>>> observed_measurement("CC(C)=CCOc1c2occc2cc2ccc(=O)oc12")
1.01

We now examine a further compound.
Form field cell viability, entry CCNc1nc(Cl)nc(NCC)n1 : 1.02
